Where these numbers come from: the supplement of paper PMC9170038

Recorded apparent KD of MS2 coat protein by entry
- Test system: MS2 coat protein
- assay.method.text: apparent KD of MS2 coat protein; designed switch direction (-1 OFF switch, 1 ON switch): -1; higher = weaker reporter binding
- condition.summary: input ligand: FMN 200 uM
Write it as a number; the unit nM goes unstated.

Example entries and their recorded answers appear below.
AGGGAGCGAGGAUAUACAGAGUAGGAAACUACUCCCUCAGUACAUGAGGAUCACCCAUGUAGAAGGCGCCCGAA [EX2 A.1] (Eterna round: R97, puzzle: Exclusion 2); 38
CGUGGCCAAGGAUAUGGGUAUCAUGACAUGAGGAUCACCCAUGUAUAGAGGAUCCAUAGCCCAGAAGGUGGUCCGG [Eternabot (L1) Solution 85] (Eterna round: R97, puzzle: Exclusion 5); 44
GCCGAAAAUGUGAGGAUAUACCUAUGGAUACAUAGGUAGAAGGCACAUGAGGAUCACCCAUGUCUAAUAACGGC [Eli bmx4 4.26] (Eterna round: R97, puzzle: Brourd's mod of Exclusion 4); 521
AAGGGUACUUUCGGAACGACAUGAGGAUCACCCAUGUAGACUGAGGAUAUCUGCUACUAAGGACGGGAGAAGGCAGUGUAAUGU [Ex NG3 #75] (Eterna round: R96, puzzle: Exclusion NG 3); 18.5
CUGAGUAGAGGAUAUACAUGAGGAUCACCCAUGUAAAGUAGCUUGCGUACAGGCAGAUGUAGAAGGUUAUUCGG [Mod of JL 13 - Jieux - Exclusion 3] (Eterna round: R97, puzzle: Exclusion 3); 53.1
AUAAUGUAAGGAUAUCAGUCGUACAGCUUCGGCUGUACGACUGAGAAGGUACAUGAGGAUCACCCAUGUGAUCA [E4/8-A1] (Eterna round: R97, puzzle: Exclusion 4); 185

From here, focus on the item given below.
Query block: Fill in: apparent KD of MS2 coat protein of UACAUGAGGAUCACCCAUGUUUUGUCGUGUAUGGUAUUUAUCUAGGAUAUCAAUUUGUGUAUUUAUGAGAAGGAGAAUAUUAAU [JMF's solution 68] (Eterna round: R96, puzzle: Exclusion NG 3) is ___
Result block: 44
